molecular target: C3c (Homo sapiens, UniProt P01024); assay: Binding profile: binding to C3c; conditions: relative to the binding of the negative control mIgG2 antibody
Sequence (P01024 23-667 limits assumed): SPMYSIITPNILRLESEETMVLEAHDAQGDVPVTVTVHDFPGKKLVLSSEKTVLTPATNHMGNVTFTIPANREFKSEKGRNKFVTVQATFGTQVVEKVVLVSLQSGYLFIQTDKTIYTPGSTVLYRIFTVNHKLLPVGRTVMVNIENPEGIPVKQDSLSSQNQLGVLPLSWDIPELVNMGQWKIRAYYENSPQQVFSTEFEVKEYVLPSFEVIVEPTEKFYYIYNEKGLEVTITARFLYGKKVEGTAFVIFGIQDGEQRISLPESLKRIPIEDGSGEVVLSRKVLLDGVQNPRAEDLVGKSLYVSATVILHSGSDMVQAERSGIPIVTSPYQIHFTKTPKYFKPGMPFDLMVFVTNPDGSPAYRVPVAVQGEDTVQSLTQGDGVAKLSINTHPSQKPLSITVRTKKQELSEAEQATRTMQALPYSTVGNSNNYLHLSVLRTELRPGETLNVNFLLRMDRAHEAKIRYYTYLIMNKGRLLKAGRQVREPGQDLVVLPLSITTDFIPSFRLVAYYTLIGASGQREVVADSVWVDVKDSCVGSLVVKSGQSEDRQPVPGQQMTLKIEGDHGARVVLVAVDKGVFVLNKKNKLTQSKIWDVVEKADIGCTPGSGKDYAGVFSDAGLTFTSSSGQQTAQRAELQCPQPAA
Sequence (P01024 749-954 limits assumed): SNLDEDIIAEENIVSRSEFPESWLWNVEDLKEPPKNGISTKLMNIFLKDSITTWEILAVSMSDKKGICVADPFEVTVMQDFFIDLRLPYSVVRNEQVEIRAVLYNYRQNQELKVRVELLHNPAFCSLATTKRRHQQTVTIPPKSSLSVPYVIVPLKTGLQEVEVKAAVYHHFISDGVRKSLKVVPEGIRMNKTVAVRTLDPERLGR
Sequence (P01024 1321-1663 limits assumed): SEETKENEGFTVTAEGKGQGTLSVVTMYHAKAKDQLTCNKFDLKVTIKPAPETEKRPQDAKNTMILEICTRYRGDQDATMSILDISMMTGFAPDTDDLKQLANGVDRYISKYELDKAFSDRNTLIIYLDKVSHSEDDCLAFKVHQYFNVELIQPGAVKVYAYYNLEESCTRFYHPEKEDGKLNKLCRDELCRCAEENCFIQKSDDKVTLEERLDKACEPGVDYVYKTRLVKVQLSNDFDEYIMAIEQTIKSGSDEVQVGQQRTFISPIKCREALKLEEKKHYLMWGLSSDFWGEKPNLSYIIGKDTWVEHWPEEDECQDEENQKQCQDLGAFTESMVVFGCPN
Each entry below carries its reported binding to C3c.
Please reply with the number alone, leaving off any unit.

# count of solved cases: 3
3D8: mouse anti-C3 monoclonal antibody; VH SEQ ID NO:91, VL SEQ ID NO:92 (antibody, V domains shown) VH: EIQLQQSGAELVKPGASVKISCKASGYSFTGYNMNWVKQSHGKSLEWIGNINPYYGSTNYNQKFKGKATLTVDKSSTTAYMQLDSLTSEDSAVYYCARGYYGGNYPFAYWGQGTLVTVSA VL: DIQMTQSPASLSASVGETVTITCRASENIYSYLAWYQQKQGKSPQLLVYNAKTLAEGVPSRFSGSGSGTQFSLKINSLQPEDFGSYYCQHYYGTPYTFGGGSKVEIK : 0.17
38G10: mouse anti-C3 monoclonal antibody; VH SEQ ID NO:18, VL SEQ ID NO:19 (antibody, V domains shown) VH: EVQLQQSGPELVKPGDSVKMSCKASGYTFTDFYMDWVKQSHGKSLEWIGYIYPHNGGTTYNQNFTGKATLTVDKSSNTAYMELHSLTSEDSAVYYCARRGGFDFDYWGQGTTLTVSS VL: NIVMTQSPKSMSLSVGERVTLRCKASENVDTYVSWYQQKPEQSPKLLIYGASNRYTGVPDRFTGSGSATEFTLTISSVQAEDLVGYHCGQSHSYPLTFGAGTKLELK : 0.13
63A3: mouse anti-C3 monoclonal antibody; VH SEQ ID NO:107, VL SEQ ID NO:108 (antibody, V domains shown) VH: DVQLQESGPGLVKPSQSLSLTCSVTGYSITSGYYWNWIRQFPGNKLEWMGYIRYDGSNNYNPSLKNRISITRDTSKNQVFLKLNSVTPEDTATYYCARHYGYDGGAFDFWGQGTTLTVSS VL: DIQMTQSPASLSASVGETVTITCRTSENIYNYLVWYQQKQGKSPQLLVYNAKTLEEGVPSRFSGSGSGTQFSLKVNSLQPEDFGSYYCQHHYGTPFTFGSGTKLEIK : 0.55

Consider now this further molecule.
Q. Value lookup for binding to C3c; key = 62F2: mouse anti-C3 monoclonal antibody; VH SEQ ID NO:105, VL SEQ ID NO:106 (antibody, V domains shown) VH: DVQLQESGPDLVKPSQSLSLTCTVTGYSITSGYSLHWIRQFPGNKLEWMGYIHYSGSTNYNPSLKSRISITRDTSKNQFFLKLNSVTSEDTATYHCARAWDYLDYWGQGTTLTVSS VL: DIQMTQSPASLSASVGETVTITCRASENIYSQLAWYQQKQGKSPQLLVYDAKTLAEGVPSRFSGSGSDTQFSLKIISLQPEDFGRYYCHHHFGILYTFGGGTKLEMK
A. 0.43
